# TEST_SUMMARY: NCI Yeast Anticancer Drug Screen. Data for the rad50 strain (AID 155);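 further: 0% = growth of vehicle-only cultures of the same strain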
# PROTOCOL_CONDITIONS: S. cerevisiae rad50 strain growth inhibition; at 5.0 µM (retest, dose inferred, filed as 0.5); hits give high values
This is part of a sample that, as a whole, favours compounds with a hit. Of some 79,000 tested, about 15% had one in any assay. Calls of active or inactive are those of the source. No stated cut-off is given here; in the data, active means growth inhibition above about 70%; inactive means the rest.
REPORTED_METRIC: growth inhibition

# input I'd like to know its growth inhibition. The compound in question is O=NN(CCCl)C(=O)Nc1cc(Cl)ccc1O
# output -8% (inactive)

# input I'd like to know its growth inhibition. The compound in question is O=S(=O)(NC1CCCCC1)c1ccc2c(c1)OCCOCCOCCOCCO2
# output 7% (inactive)

# input I'd like to know its growth inhibition. The compound in question is NC(=O)C1CCN(N=Nc2c(-c3ccccc3)n[nH]c2-c2ccccc2)CC1
# output 79% (active)

# input I'd like to know its growth inhibition. The compound in question is CC(C)C(Sc1nc(-c2ccccc2)c(-c2ccccc2)[nH]1)C(=O)NN (stereo unspecified)
# output -7% (inactive)

# input I'd like to know its growth inhibition. The compound in question is COc1ccc(C(=O)C(c2ccc(OC)cc2)C2(O)C(=O)Nc3c(C)cc(Cl)cc32)cc1 (stereo unspecified)
# output 21% (inactive)

# input I'd like to know its growth inhibition. The compound in question is CC(=O)NNc1nc(C)c(C(=O)NNC(=O)C(=O)Nc2ccc(Cl)cc2Cl)s1
# output 1% (inactive)

# input I'd like to know its growth inhibition. The compound in question is Cc1c(F)c(C)c(C(=O)O)c(C)c1F
# output 26% (inactive)

# input I'd like to know its growth inhibition. The compound in question is Nc1cc(S(=O)(=O)O)cc2cc(S(=O)(=O)O)c(N=Nc3ccccc3)c(O)c12
# output 0% (inactive)

# input I'd like to know its growth inhibition. The compound in question is Clc1ccccc1C(Cc1c(Cl)cccc1Cl)Cn1ccnc1 (stereo unspecified)
# output 74% (active)

# input I'd like to know its growth inhibition. The compound in question is CCCCNC(=O)OCCN=C1c2ccccc2C(Br)C(Br)c2ccccc21 (stereo unspecified)
# output 5% (inactive)

# input I'd like to know its growth inhibition. The compound in question is OC1CCCCC1Cc1ccc(Cl)cc1 (stereo unspecified)
# output -2% (inactive)
